# ASSAY SYSTEM: human flk-1 (Homo sapiens, UniProt P35968)
# Construct: host or cells: Flk-1/NIH cells (NIH fibroblasts)
# Sequence (P35968 20-1356): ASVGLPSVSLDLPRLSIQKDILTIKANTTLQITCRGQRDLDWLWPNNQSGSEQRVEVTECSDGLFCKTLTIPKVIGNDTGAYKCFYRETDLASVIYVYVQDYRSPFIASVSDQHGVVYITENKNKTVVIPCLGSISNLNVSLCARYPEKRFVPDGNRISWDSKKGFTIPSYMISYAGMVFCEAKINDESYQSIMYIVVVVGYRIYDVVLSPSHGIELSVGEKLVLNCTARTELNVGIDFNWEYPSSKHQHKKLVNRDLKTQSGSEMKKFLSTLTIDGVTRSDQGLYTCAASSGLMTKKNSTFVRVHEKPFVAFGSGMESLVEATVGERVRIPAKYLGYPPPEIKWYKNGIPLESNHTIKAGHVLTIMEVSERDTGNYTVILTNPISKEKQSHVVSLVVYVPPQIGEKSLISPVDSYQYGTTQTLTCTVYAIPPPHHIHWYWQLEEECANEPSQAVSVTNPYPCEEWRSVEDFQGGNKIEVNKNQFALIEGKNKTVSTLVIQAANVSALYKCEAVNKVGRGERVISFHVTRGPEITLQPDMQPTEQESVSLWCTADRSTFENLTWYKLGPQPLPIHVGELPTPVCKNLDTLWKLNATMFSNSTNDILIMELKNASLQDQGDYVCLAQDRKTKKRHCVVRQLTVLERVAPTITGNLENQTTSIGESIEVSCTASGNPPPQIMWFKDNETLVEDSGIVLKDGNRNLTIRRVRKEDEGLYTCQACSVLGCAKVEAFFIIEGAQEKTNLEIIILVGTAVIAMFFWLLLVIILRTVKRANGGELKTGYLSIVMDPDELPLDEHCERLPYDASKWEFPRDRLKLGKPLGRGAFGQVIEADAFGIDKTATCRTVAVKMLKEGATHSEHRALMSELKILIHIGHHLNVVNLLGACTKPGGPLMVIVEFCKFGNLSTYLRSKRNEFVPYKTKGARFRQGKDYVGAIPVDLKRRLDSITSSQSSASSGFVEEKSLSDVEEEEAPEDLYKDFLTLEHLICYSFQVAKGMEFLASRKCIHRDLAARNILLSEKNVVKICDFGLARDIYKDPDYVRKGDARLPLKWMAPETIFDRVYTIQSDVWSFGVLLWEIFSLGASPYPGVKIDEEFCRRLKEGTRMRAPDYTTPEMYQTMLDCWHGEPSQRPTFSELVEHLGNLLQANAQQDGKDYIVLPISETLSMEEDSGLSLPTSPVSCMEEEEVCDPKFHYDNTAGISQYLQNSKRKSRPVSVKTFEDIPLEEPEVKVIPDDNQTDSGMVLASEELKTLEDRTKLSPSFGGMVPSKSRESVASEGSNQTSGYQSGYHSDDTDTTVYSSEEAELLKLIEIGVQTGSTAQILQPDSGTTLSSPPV
# METHOD: Biochemical FLK-1 assay (flk-1 autophosphorylation ELISA)
# SETUP CONDITIONS: read-out: bio FLK1 IC50 (μM) % if inhibition at 100
# Procedure: This assay evaluates flk-1 autophosphorylation activity in vitro using ELISA. Materials And Reagents • 1. 15 cm tissue culture dishes • 2. […] Assay Procedure • 1. […] When the color in the positive control wells reaches an absorbance of about 0.35-0.4, stop the reaction with 100 μl of turbo-TMB stop solution. • 21. Read plates on Dynatech MR7000 ELISA reader, test filter: 450 nM, reference filter: 410 nM.
MEASURED ATTRIBUTE: IC50 (µM)

[P] O=C(O)CCc1ccccc1/C=C1/C(=O)Nc2ccccc21
[Q] COc1cccc(-c2ccc3c(c2)NC(=O)/C3=C\c2[nH]c3c(c2CCC(=O)O)CCCC3)c1
Qu. Which gives the smaller IC50 number: P or Q ? Choose, then provide that item's label.
Ans. Q
(Q: 0.36 µM, P: 50.6 µM)
